B1: Osa-1-4 twister ribozyme (parent)
chain: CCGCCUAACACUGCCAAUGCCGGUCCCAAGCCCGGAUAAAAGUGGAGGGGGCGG

variants of: B1; assay: self-cleavage, relative activity (ratio to wild type); higher = more cleavage; co-transcriptional
Each entry belongs to exactly one class, chosen by where its self-cleavage falls: LOW: < 0.06; MID: ≥ 0.06 and < 0.2; HIGH: ≥ 0.2

{"mutation.notation": "A38G G23A", "class": "HIGH"}
{"mutation.notation": "C11A G34A", "class": "MID"}
{"mutation.notation": "A7U C27G", "class": "LOW"}
{"mutation.notation": "A46U C21A", "class": "MID"}
{"mutation.notation": "A29G C20U", "class": "HIGH"}
{"mutation.notation": "A8U G19C", "class": "LOW"}
{"mutation.notation": "G42C U24G", "class": "LOW"}
{"mutation.notation": "A39C G54U", "class": "HIGH"}
{"mutation.notation": "C52G C9A", "class": "HIGH"}
{"mutation.notation": "C11A G44A", "class": "MID"}
{"mutation.notation": "A39U C15A", "class": "HIGH"}
{"mutation.notation": "A28G A7U", "class": "MID"}
{"mutation.notation": "A41U C11A", "class": "HIGH"}
{"mutation.notation": "C26G G49C", "class": "LOW"}
{"mutation.notation": "G51U U24G", "class": "LOW"}
{"mutation.notation": "G53U U37G", "class": "HIGH"}
{"mutation.notation": "A10G C25G", "class": "MID"}
{"mutation.notation": "C52U G42A", "class": "HIGH"}
